system: HCT-116 colon; test: NCI-60 one-dose screen, 48 h; conditions: 10 µM unless noted
About 83,000 compounds went through this panel and 20% of them were active in at least one assay; those are over-represented in the sample as a whole. Calls of active or inactive are those of the source. Rule for the calls: active = growth percent below 10; inactive = the rest.
Please answer using one outcome listed in TRUE for active, FALSE for inactive

A selection of reference data follows.
CSc1nnc(-c2cc3c([nH]c4ccccc43)c(-c3cccc(O)c3)n2)n1-c1ccc(C)cc1 : FALSE
COCCn1cc(-c2nc(-c3cn(CCOC)c4ncccc34)cs2)c2ccccc21 : FALSE
CCN(CC)CC#CCOC(=O)[C@]1(C)CCC[C@]2(C)c3ccc(C(C)C)cc3CC[C@@H]12 : FALSE
c1ccc(-c2cc(-c3cc(-c4ccccc4)on3)no2)cc1 : FALSE
COC(=O)/C=C1/SC(=Nc2ccc([N+](=O)[O-])cc2)N(CCc2c[nH]c3ccccc23)C1=O : FALSE

Give the logged outcome of this assay for the following molecule: O=C1c2cc3c(cc2-c2c1c1ccc(Cl)cc1c(=O)n2CCCn1ccnc1)OCO3
TRUE

For O=C(Nc1ccc(F)cc1)c1cc2cc(Nc3nc(-c4ccccc4)nc4ccccc34)ccc2oc1=O then?
FALSE

And what about the molecule Cc1cccc(Cc2cnc(NC(=O)CCCOc3ccc(Cl)cc3)s2)c1 ?
FALSE

CN(C)CCN1C(=O)c2c(c3c4ccccc4n4c3c3c2c2ccccc2n3C2CC(O)C(O)C4(C)O2)C1=O (configuration not stated) , same question.
FALSE

// next record O=C(/C=C/C12c3ccccc3C(c3ccccc31)C1C(=O)NC(=O)C12)c1ccncc1 (configuration not stated)
TRUE

Please do the same for COc1cc(/C=C2\C(=O)N(CCCCn3c4ccccc4c(=O)c4ccccc43)c3ccccc32)cc(OC)c1O as well.
FALSE

Next: C/C=C(/C)C(=O)O[C@@H]1CC(C)(C)CC2C34OC(=O)[C@@]21CC[C@@]3(C)[C@]1(C)CCC2C(C)(C)C(=O)CC[C@]2(C)C1C[C@@H]4Cl (some centres not stated)
FALSE
